Test system: HEp-2 cells
METHOD: Cytotoxicity in parallel to the RSV-A assay (no virus), ATPlite readout
Assay type: cell-based, human
# maps each entry to its CC50

Below, each entry is followed by its recorded CC50 result.
>>> value("O=C1Nc2ccccc2C(c2ccccc2)=N[C@H]1Nc1nnc(-c2ccc(F)cc2)o1 [Example 7b]")
"10 to 50 µM"
>>> value("O=C1Nc2ccccc2C(c2ccccc2)=NC1Nc1nnc(Cc2ccccc2)o1 (centres unmarked) [Example 22]")
"> 50 µM"
>>> value("CC(=O)N1CCC(c2nnc(NC3N=C(c4ccccc4)c4ccccc4NC3=O)o2)CC1 (centres unmarked) [Example 47]")
"> 50 µM"

-- ask Name the recorded CC50 for O=C1Nc2ccccc2C(c2ccccc2)=NC1Nc1nnc(-c2ccccc2)s1 (centres unmarked) [Example 81] .
-- reply > 50 µM

-- ask Check N#Cc1ccc(-c2nnc(NC3N=C(c4ccccc4)c4ccccc4NC3=O)s2)cc1 (centres unmarked) [Example 82] too.
-- reply > 50 µM

-- ask Check Cn1ccnc1-c1nnc(NC2N=C(c3ccccc3)c3ccccc3NC2=O)o1 (centres unmarked) [Example 67] too.
-- reply > 50 µM

-- ask Check O=C1Nc2ccccc2C(c2ccccc2)=NC1Nc1nc(-c2ccccc2)no1 (centres unmarked) [Example 89] too.
-- reply 10 to 50 µM

-- ask Check CN(C)Cc1ccc(-c2nnc(NC3N=C(c4ccccc4)c4ccccc4NC3=O)o2)o1 (centres unmarked) [Example 73] too.
-- reply > 50 µM
